molecular target: Carbonic anhydrase 12 (Homo sapiens)
Sequence (O43570 whole entry): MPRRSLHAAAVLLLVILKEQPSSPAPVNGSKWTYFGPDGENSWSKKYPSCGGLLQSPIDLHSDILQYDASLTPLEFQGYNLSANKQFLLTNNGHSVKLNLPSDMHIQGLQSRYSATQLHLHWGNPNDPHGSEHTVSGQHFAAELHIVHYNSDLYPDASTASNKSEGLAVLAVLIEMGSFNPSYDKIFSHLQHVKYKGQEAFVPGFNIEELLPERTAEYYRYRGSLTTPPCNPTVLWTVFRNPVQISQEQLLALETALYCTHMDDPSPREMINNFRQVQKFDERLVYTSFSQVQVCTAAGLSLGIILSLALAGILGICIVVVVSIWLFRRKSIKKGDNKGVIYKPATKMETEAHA
observation.type: Ki (nM)

>>> observed_value("O=C(CCCCC1CCSS1)NCCCS(=O)(=O)[O-].[Na+] (stereo unspecified)")
727

Just for reference, ChEMBL document CHEMBL4024753 is where these values come from.
